System: KOPN8 cell line
Test summary: cells
Type: cell-based, human
Settings: Homo sapiens, KOPN-8, 96 h
Overview of recorded IC50 for various compounds

Solved cases (2 shown):
Structure	IC50
Nc1nc2nc[nH]c2c(=S)[nH]1	4.5 µM
CN(C)/N=N/c1[nH]cnc1C(N)=O	> 10 µM

Query block: What is its IC50 for KOPN8 cell line? Entry: CC(=O)O[C@@]12CO[C@@H]1C[C@H](O)[C@@]1(C)C(=O)[C@H](O)C3=C(C)[C@@H](OC(=O)[C@H](O)[C@@H](NC(=O)OC(C)(C)C)c4ccccc4)C[C@@](O)([C@@H](OC(=O)c4ccccc4)[C@H]21)C3(C)C
Result block: < 0.01 µM

* * *

Test system: KOPN8 cell line
Test summary: cells
Assay type: cell-based, human
Settings: Homo sapiens, KOPN-8, 96 h
pIC50: −log10 of the molar value.
Overview of recorded pIC50 for various compounds

Solved cases (2 shown):
Compound	Target or test system	Observation type	Value reported
Oc1ncnc2[nH]ncc12	KOPN8 cell line	pIC50	< 5.30
CC(=O)O[C@]1(C(C)=O)CC[C@H]2[C@@H]3C=C(C)C4=CC(=O)CC[C@]4(C)[C@H]3CC[C@@]21C [Megestrol acetate]	KOPN8 cell line	pIC50	< 5.30

Query block: I have this compound here, C[C@]12CC[C@@H]3c4ccc(OC(=O)N(CCCl)CCCl)cc4CC[C@H]3[C@@H]1CC[C@@H]2O , and I need its recorded pIC50.
Result block: < 5.00

Query block: I have this compound here, O=c1[nH]cc(F)c(=O)[nH]1 , and I need its recorded pIC50.
Result block: < 5.30

Query block: I have this compound here, Cc1cn(-c2cc(NC(=O)c3ccc(C)c(Nc4nccc(-c5cccnc5)n4)c3)cc(C(F)(F)F)c2)cn1 , and I need its recorded pIC50.
Result block: < 5.00

Query block: I have this compound here, O=C1c2c(O)ccc(O)c2C(=O)c2c(NCCNCCO)ccc(NCCNCCO)c21 , and I need its recorded pIC50.
Result block: > 8.00

Query block: I have this compound here, CC1=C(/C=C/C(C)=C/C=C/C(C)=C/C(=O)O)C(C)(C)CCC1 , and I need its recorded pIC50.
Result block: < 5.30

Query block: I have this compound here, Clc1ccc(C(c2ccccc2Cl)C(Cl)Cl)cc1 (stereo not shown) , and I need its recorded pIC50.
Result block: < 5.30

Query block: I have this compound here, S=c1[nH]cnc2nc[nH]c12 , and I need its recorded pIC50.
Result block: < 5.30

Query block: I have this compound here, NCCCNCCSP(=O)(O)O , and I need its recorded pIC50.
Result block: < 5.00
